system: HEK-293T; test: Incucyte cell viability with HEK293T; format: toxicity, cell-based; conditions: human, 24 h, 10 µM, compound concentration 10 uM, replicate number 1; further: unitless GR value; below 1 slowed growth and below 0 cell loss
Simple rule here: Growth Rate less than 0.8 is T, otherwise F.

Cc1nc(Nc2ncc(C(=O)Nc3c(C)cccc3Cl)s2)cc(N2CCN(CCO)CC2)n1 [DASATINIB ANHYDROUS]    T
O=C(CCl)Nc1ccc(S(=O)(=O)c2ccc(NC(=O)CCl)cc2)cc1    T
CC(C)(O)c1ccc(N2Cc3c(ccnc3-c3ccc(F)cc3OCC(F)(F)F)C2=O)cc1    F
CC/C(=C(/CC)c1ccc(O)cc1)c1ccc(O)cc1    T
Cc1cc(C)cc(Oc2ccc(CNC(=O)[C@H](C)N)cc2C)c1.Cl    F
CC(C)(C)OC(=O)Nc1ccc(-c2cc(C(=O)NCCCCCCC(=O)NO)no2)cc1    T
CCCOc1cc(OCCCCN(C)C)cc(Oc2cc3c(cc2NS(=O)(=O)c2ccc(OC)c(OC)c2)n(C)c(=O)n3C)c1.O=C(O)C(F)(F)F    T
Cc1ncsc1-c1ccc(CNC(=O)[C@@H]2C[C@@H](O)CN2C(=O)[C@@H](NC(=O)COCC(C)(COCCOCCOCCNC(=O)C[C@@H]2N=C(c3ccc(Cl)cc3)c3c(sc(C)c3C)-n3c(C)nnc32)COCCOCCOCCNC(=O)C[C@@H]2N=C(c3ccc(Cl)cc3)c3c(sc(C)c3C)-n3c(C)nnc32)C(C)(C)C)cc1    F
CCS(=O)(=O)N1CC(CC#N)(n2cc(-c3ncnc4[nH]ccc34)cn2)C1    F
O=C(NO)c1ccc(CN(c2cnccn2)c2cnccn2)cc1    F
CC(=O)Nc1ccc(C(=O)Nc2ccc(F)cc2N)cc1    T
Oc1ccc(-c2c(-c3ccccc3)nn3c(C(F)(F)F)cc(C(F)(F)F)nc23)cc1    F
CC(=O)N[C@@H](CC(=O)O)C(=O)N[C@@H](CCC(=O)O)C(=O)N[C@H](C(=O)N[C@H](C=O)CC(=O)O)C(C)C.O=C(O)C(F)(F)F    T
COc1cc2c(NC3CCN(CC4CCCCC4)CC3)nc(N3CCCN(C(C)C)CC3)nc2cc1OCCCN1CCCCC1    T
CN(C)CCCN(CC[C@H](N)C(=O)O)C[C@H]1O[C@@H](n2cnc3c(N)ncnc32)[C@H](O)[C@@H]1O.O=C(O)C(F)(F)F    F
O=C([O-])CCNc1cc(N2CCc3ccccc3CC2)nc(-c2cccnc2)n1.[Na+]    F
COc1cc2c(NC3CCN(C4CCCCC4)CC3)nc(N3CCCN(C(C)C)CC3)nc2cc1OCCCN1CCCCC1    T
O=C(CCCCCCC(=O)Nc1ccc([C@H]2O[C@@H](CSc3nc(-c4ccccc4)c(-c4ccccc4)o3)C[C@@H](c3ccc(CO)cc3)O2)cc1)NO    F
O=C(NCCCn1ccnc1)c1cc2nc(-c3ccccc3)cc(-c3ccccc3)n2n1    T
Cc1nc(F)ccc1-c1cc(Cn2ccn(C)c2=N)cc(C(=O)NCc2ccc(Cl)c(Cl)c2)c1.O=C(O)C(F)(F)F    F
CNC(=O)O[C@H]1COc2ccc(N3CCN(C4COC4)CC3)cc2[C@@H]1NC(=O)c1ccc(F)cc1    F
COc1cc2c(NCC3CCN(C)CC3)cc(-c3ccc(C)o3)nc2cc1OCCCN1CCCC1    T
COc1cc(Nc2ncc(F)c(Nc3ccc4c(n3)N(COP(=O)([O-])[O-])C(=O)C(C)(C)O4)n2)cc(OC)c1OC.O.O.O.O.O.O.[Na+].[Na+] [FOSTAMATINIB DISODIUM]    T
N=C(N)N/N=C/c1cccc(Cl)c1Cl    T
O=C1Cc2cc(C(=O)N[C@@H]3C[C@H]4CC[C@@H](C3)N4S(=O)(=O)CC3CCN(CCCC(F)(F)F)CC3)c(Cl)cc2N1    F
CS(=O)(=O)c1ccc(-c2cnc(NCc3ccco3)n3cnnc23)cc1    T
O=C(NCC(=O)N1CCCCC1)Nc1ccc2nnsc2c1    T
O=C(NO)C(c1ccc(-c2ncc(C(F)(F)F)cn2)cc1)c1ccccc1F (configuration not stated)    T
C/C=C1\NC(=O)[C@H]2CSSCC/C=C/[C@H](CC(=O)N[C@H](C(C)C)C(=O)N2)OC(=O)[C@H](C(C)C)NC1=O    T
C=C(C)[C@@H](CC=C(C)C)C[C@@]12C[C@@H](CC=C(C)C)C(C)(C)[C@@](CC=C(C)C)(C(=O)C(C(=O)c3ccc(O)c(O)c3)=C1O)C2=O    T
COC[C@H](NC(=O)c1ccn(S(C)(=O)=O)c1)C(=O)Nc1nc(-c2cccc(-c3ccn(C)n3)c2)cs1    F
Cc1nn(CC(F)(F)F)cc1Nc1ncc(Br)c(NCc2ccc(S(N)(=O)=O)cc2)n1    T

---

# Lookup of reported Growth Rate keyed by entry
test system: U2OS; assay: Incucyte cell viability with U2OS; assay type: toxicity, cell-based; conditions: human, 24 h, 10 µM, compound concentration 10 uM, replicate number 1; further: unitless GR value; below 1 slowed growth and below 0 cell loss
Peptide text beside a SMILES is read from it. * marks the point of attachment. CH2Cl = ClC*
measureName: Growth Rate

CC(=O)N[C@@H](Cc1ccccc1)C(=O)N[C@@H](CC(C)C)C(=O)N[C@H](C(=O)N[C@@H](CC(=O)O)C(=O)CCl)[C@@H](C)O (Ac-FLTD-CH2Cl)    0.81
CCCCN(Cc1ccc(C(=O)NO)cc1)C(=O)Nc1ccccc1    -0.18
CCCOC(=O)N1CCN(C(=O)c2ccc3c(Cl)cc(-c4ccc(C5(N)CC5)cc4)nc3c2)C[C@H]1C    0.52
O=C(NO)c1ccc(CN2CCCc3cc(Cl)ccc32)cc1    0
O=C(NCC1(c2nc(-c3ccccc3)cs2)CCOCC1)c1cccc(-c2noc(C(F)(F)F)n2)c1    1
COCCOCCn1nc2c(c1C)-c1c(Cl)ccc3c1c(C)c(C(=O)O)n3CCCOc1cc(cc3c(F)c(Cl)ccc13)CCc1cc(nn1C)CSC2    0.15
CC(=O)N[C@@H](Cc1ccc(O)cc1)C(=O)N[C@H](C(=O)N[C@@H](C)C(=O)N[C@H](C=O)CC(=O)O)C(C)C    0.78
Cl.Cl.O=C(O)Cn1nnc(-c2ccc(CN(CCCCOc3ccc(CN4CCCC4)cc3)CCc3ccccc3)cc2)n1    1

---

system: HEK-293T; experiment: Incucyte cell viability with HEK293T; assay type: toxicity, cell-based; conditions: human, 24 h, 10 µM, compound concentration 10 uM, replicate number 2; further: unitless GR value; below 1 slowed growth and below 0 cell loss
Square brackets hold non-standard residues; d marks the D form. Peptide text beside a SMILES is read from it. * marks the point of attachment. Benzoyl(4-OPh) = O=C(c1ccc(Oc2ccccc2)cc1)*; Lys(Et2) = CCN(CC)CCCC[C@H](N)C(=O)O; d(aIle) = CC[C@H](C)[C@@H](N)C(=O)O; Gly(cPent) = N[C@H](C(=O)O)C1CCCC1; NH(propargyl) = C#CCN*
measureName: Growth Rate

C#CCNC(=O)[C@H](CO)NC(=O)[C@H](CCCCN(CC)CC)NC(=O)[C@H](NC(=O)[C@@H](NC(=O)c1ccc(Oc2ccccc2)cc1)C1CCCC1)[C@@H](C)CC ({Benzoyl(4-OPh)}-[Gly(cPent)][d(aIle)][Lys(Et2)]S-{NH(propargyl)})    1
COc1cc2c(Nc3ccc(Br)cc3F)ncnc2cc1OCC1CCN(C)CC1    0.26
CCOCC1(COCC)CCC(c2n[nH]cc2CN(C)CCNC)CC1.Cl    0.63
CC(=O)N1CCC(Nc2cc(C(=O)NC[C@H](O)CN3CCc4ccccc4C3)ncn2)CC1    1
C=CC(=O)Nc1cccc(-c2c[nH]cc2CN(C)CCN)c1    0.9
Cc1cc(C)c(CNC(=O)c2cc(Cl)c3c(c2C)O[C@@](C)([C@H]2CC[C@H](N(C)C)CC2)O3)c(=O)[nH]1    0.96
COc1nc(Nc2cc(S(C)(=O)=O)ccc2N[C@@H](c2cccc3c2OC(F)(F)O3)c2ncccc2Cl)nc(N2CCNCC2)n1    -0.39
COc1cc2c(NCC3CCN(C)CC3)cc(-c3ccc(C)o3)nc2cc1OCCCN1CCCC1    -0.29
CCN(CCN(C)C)C(=O)CNCc1cc(C(N)=O)ccn1.Cl.O    0.94
O=C(C=Cc1ccc(O)cc1)c1ccc(O)cc1O    0.82
O=c1[nH]ccc2cc(F)c(NS(=O)(=O)c3ccc(N4CC[C@@H](O)C4)s3)cc12    0.98
Cc1ncc(Cl)cc1NCc1ccc(C(=O)N[C@@H](CC2CCCC2)C(=O)NC2CC2)s1    0.85
CC(=O)N[C@@H](C)C(=O)N[C@@H](CCC(=O)O)C(=O)N[C@H](C(=O)N[C@@H](C=O)CC(=O)O)C(C)C (Ac-AEV[dD]-aldehyde)    1
COC(=O)C[C@@H]1N=C(c2ccc(Cl)cc2)c2c(sc(C)c2C)-n2c(C)nnc21    0.77
CCN(c1cc(-c2ccc(CN3CCOCC3)cc2)cc(C(=O)NCc2c(C)cc(C)[nH]c2=O)c1C)C1CCOCC1    0.82
C[C@H](NC(=O)c1cn(C2(C#N)CC2)cn1)C(=O)Nc1nc(-c2cccc(-c3ccn(C)n3)c2)cs1    0.86
